Each entry below lists one item and its recorded koff value.
# assay target: Recombinant human his-tagged IGF R extracellular domain protein (human) (UniProt P08069)
# protocol: SPR, Ab captured via anti-huIgG Fc, dissociation at pH 6
Just the number in s⁻¹, nothing appended.

Examples with their reported koff follow.
VRDN-02051 (antibody, V domains shown) VH: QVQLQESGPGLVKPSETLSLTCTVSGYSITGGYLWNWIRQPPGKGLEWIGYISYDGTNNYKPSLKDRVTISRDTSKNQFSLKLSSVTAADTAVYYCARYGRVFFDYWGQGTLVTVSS VL: DIVMTQSPLSLPVTPGEPASISCRSSQSIVHSNGNTYLQWYLQKPGQSPQLLIYKVSNRLYGVPDRFSGSGSGTDFTLKISRVEAEDVGVYYCHQGSHVPWTFGQGTKVEIK; 8.62e-05
VRDN-02030 (antibody, V domains shown) VH: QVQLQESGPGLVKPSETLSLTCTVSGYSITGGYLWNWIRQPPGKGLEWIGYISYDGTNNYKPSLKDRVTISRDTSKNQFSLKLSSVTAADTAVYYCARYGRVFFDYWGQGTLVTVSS VL: DIVMTQSPLSLPVTPGEPASISCRHSQSIVHSNGNTYLQWYLQKPGQSPQLLIYKVSNRLYGVPDRFSGSGSGTDFTLKISRVEAEDVGVYYCFQGSHVPWTFGQGTKVEIK; 9.65e-05
VRDN-02037 (antibody, V domains shown) VH: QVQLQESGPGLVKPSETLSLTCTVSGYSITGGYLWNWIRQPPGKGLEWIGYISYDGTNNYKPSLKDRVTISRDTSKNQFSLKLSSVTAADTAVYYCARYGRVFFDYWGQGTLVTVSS VL: DIVMTQSPLSLPVTPGEPASISCRSSQSIVHSHGNTYLQWYLQKPGQSPQLLIYKVSNRLYGVPDRFSGSGSGTDFTLKISRVEAEDVGVYYCFQGSHVPWTFGQGTKVEIK; 0.000101
VRDN-02045 (antibody, V domains shown) VH: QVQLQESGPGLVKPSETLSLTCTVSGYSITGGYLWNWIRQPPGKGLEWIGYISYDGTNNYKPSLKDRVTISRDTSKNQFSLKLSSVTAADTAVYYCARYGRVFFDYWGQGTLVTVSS VL: DIVMTQSPLSLPVTPGEPASISCRSSQSIVHSNGNTYLQWYLQKPGQSPQLLIYKHSNRLYGVPDRFSGSGSGTDFTLKISRVEAEDVGVYYCFQGSHVPWTFGQGTKVEIK; 8.63e-05

Please find the next binder below.
Query block: Give the reported koff for this binder. VRDN-02071 (antibody, V domains shown) VH: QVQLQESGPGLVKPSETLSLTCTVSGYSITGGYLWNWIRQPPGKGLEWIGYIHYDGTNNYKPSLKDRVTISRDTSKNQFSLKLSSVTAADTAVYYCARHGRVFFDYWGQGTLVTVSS VL: DIVMTQSPLSLPVTPGEPASISCRSHQSIVHSNGNTYLQWYLQKPGQSPQLLIYKVSNRLYGVPDRFSGSGSGTDFTLKISRVEAEDVGVYYCFHGSHVPWTFGQGTKVEIK
Result block: 6.64e-05

Values were extracted from patent US20240360227A1.
